Catalogue of molecules with associated log10(EC50)
# tgt: RXR-VDR heterodimer (Homo sapiens)
# Construct: Add the Gal-4-RXR-DEF and VP16-VDR-LBD
# Sequence (P11473 127-423 limits assumed): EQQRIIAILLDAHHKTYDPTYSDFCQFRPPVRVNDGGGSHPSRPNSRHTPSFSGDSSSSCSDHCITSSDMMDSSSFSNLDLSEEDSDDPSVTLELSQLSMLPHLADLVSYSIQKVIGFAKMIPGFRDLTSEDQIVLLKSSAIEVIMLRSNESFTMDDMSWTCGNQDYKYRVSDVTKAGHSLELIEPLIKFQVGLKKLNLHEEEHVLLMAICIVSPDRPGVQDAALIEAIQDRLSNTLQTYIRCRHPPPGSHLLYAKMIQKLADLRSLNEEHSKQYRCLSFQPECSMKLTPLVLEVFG
# Sequence (P19793 201-462 partner limits assumed): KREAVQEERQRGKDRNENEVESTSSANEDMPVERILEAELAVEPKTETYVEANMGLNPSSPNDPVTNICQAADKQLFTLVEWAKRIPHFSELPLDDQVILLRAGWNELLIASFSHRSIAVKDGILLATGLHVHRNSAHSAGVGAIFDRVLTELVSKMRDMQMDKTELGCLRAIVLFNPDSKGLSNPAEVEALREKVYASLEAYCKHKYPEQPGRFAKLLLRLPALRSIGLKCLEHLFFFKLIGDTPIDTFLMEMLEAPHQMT
# experimentNotes: RXR-VDR heterodimerization assay (SaOS-2 cells)
Values below are the log10 of the recorded EC50, with nM as the unit.

molecule	tgt	log10(EC50)
CCc1cc(C(CC)(CC)c2ccc(C(=O)O)s2)ccc1OCC(O)C(C)(C)C (single isomer, unassigned)	RXR-VDR heterodimer (Homo sapiens)	2.58
CCCc1cc(C(CC)(CC)c2ccc(C(=O)O)s2)ccc1OCC(O)C(C)(C)C (single isomer, unassigned)	RXR-VDR heterodimer (Homo sapiens)	2.62
CCC(CC)(c1ccc(OCS(C)(=O)=O)c(C)c1)c1cc(C)c(CCC(O)C(C)(C)C)s1 (single isomer, unassigned) [Ex. 15B]	RXR-VDR heterodimer (Homo sapiens)	2.33
CCC(CC)(c1ccc(OCC(O)C(C)(C)C)c(C)c1)c1cc(C)c(S(=O)(=O)NCC(=O)OC)s1 (centres unmarked)	RXR-VDR heterodimer (Homo sapiens)	2.63

Give the reported log10(EC50) for this molecule. CCC(CC)(c1ccc(OCC(C)(O)C(C)(C)C)c(OC)c1)c1ccc(C(=O)N[C@H](C)C(=O)O)s1 (single isomer, unassigned) 3.34

Tell me measured log10(EC50) for CCC(CC)(c1ccc(OCC(O)C(C)(C)C)c(C)c1)c1cc(C)c(C(=O)OC)s1 (single isomer, unassigned) please. 2.51

Tell us which log10(EC50) value is on record for CCC(CC)(c1ccc(OCC(O)C(C)(C)C)c(C)c1)c1ccc(S(=O)(=O)NCC(=O)OC)s1 (single isomer, unassigned) 2.68

Give the measured log10(EC50) for CCCc1cc(C(CC)(CC)c2ccc(C(=O)O)s2)ccc1OCC(C)(O)C(C)(C)C (single isomer, unassigned) 2.73
